Target: recombinant human CK2a1 kinase (Homo sapiens, UniProt P68400)
Construct: purchased Thermo Fisher PV3248
Sequence (P68400 whole entry): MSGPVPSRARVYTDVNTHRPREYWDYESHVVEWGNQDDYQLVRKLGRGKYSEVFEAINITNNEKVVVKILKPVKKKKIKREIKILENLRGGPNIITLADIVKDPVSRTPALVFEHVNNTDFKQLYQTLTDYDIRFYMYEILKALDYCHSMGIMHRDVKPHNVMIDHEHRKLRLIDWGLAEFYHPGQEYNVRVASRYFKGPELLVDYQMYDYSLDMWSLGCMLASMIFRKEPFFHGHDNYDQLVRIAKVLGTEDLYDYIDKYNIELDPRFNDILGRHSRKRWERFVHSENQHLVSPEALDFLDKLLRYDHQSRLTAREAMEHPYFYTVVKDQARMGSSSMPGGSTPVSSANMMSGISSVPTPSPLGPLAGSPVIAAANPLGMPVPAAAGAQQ
Test: In vitro kinase assay (PhosphoSens, Cysteine-Sox sensor peptide)
Assay type: biochemical
Settings: FIG. 4A
MEASURED QUANTITY: inhibition of CK2a1 in vitro (activity class in words)

{"COMPOUND": "COc1cc(-c2cc(=O)c3c(O)cc(O)cc3o2)ccc1O", "OBS VALUE": "active"}
{"COMPOUND": "O=C1C[C@@H](c2ccc(O)cc2)Oc2cc(O)cc(O)c21", "OBS VALUE": "inactive"}
{"COMPOUND": "COc1cc([C@@H]2CC(=O)c3c(O)cc(O)cc3O2)ccc1O", "OBS VALUE": "inactive"}
{"COMPOUND": "COc1ccc(C2CC(=O)c3c(OC)cc(OC)cc3O2)cc1 (stereo not drawn)", "OBS VALUE": "inactive"}

Consider the additional compound presented here.
Return the recorded inhibition of CK2a1 in vitro (activity class in words) value; entry: COc1ccc(-c2cc(=O)c3c(OC)cc(OC)cc3o2)cc1 active
